pIC50: −log10 of the molar value.
// cross-source set; read-out = pIC50; system = hCRTH2 receptor (Homo sapiens (Human), UniProt Q9Y5Y4)
Sequence (Q9Y5Y4 whole entry): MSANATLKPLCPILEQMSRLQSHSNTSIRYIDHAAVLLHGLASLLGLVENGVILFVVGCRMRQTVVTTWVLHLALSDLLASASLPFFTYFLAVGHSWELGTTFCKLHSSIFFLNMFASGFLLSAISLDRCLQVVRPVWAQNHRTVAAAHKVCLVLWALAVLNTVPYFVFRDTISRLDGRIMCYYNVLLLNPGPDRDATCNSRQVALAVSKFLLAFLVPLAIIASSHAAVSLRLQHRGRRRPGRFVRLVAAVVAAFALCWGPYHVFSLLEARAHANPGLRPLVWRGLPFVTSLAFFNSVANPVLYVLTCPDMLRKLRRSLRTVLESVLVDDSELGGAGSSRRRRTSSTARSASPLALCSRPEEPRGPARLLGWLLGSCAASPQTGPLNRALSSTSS
Lab note: compare pIC50 against 8. Equal or greater, write Condition met. Smaller, write Condition not met.

[
  {
    "molecule": "CCC(C)COC(=O)N1CCc2ncsc2[C@H]1c1cc(Cl)ccc1OCC(=O)O (mixture of isomers)",
    "label_class": "Condition met"
  },
  {
    "molecule": "COc1ccc(CC(=O)O)cc1-c1ccc(F)c2c1CN(C(=O)CC(C)c1ccncc1)CC2 (racemic)",
    "label_class": "Condition not met"
  },
  {
    "molecule": "O=C(O)Cc1ccc(-c2ccc(F)c3c2CN(C(=O)OCc2ccccc2)CC3)cc1",
    "label_class": "Condition not met"
  },
  {
    "molecule": "CCOc1cc(CC(=O)O)ccc1-c1ccc(F)c2c1CN(C(=O)NCc1ccccc1)CC2",
    "label_class": "Condition met"
  }
]

Task item: Assess whether reported pIC50 for CC(=O)N(c1ccc(Cl)cc1)[C@H]1C[C@@H](C)N(C(=O)c2ccc(Oc3ccccc3)cc2)c2ccccc21 sits at 8 or higher.
Reply: Condition not met

* * *

Below are pIC50 measurements against hCRTH2 receptor (Homo sapiens (Human)) drawn from the literature.
The scale used: pIC50 is minus the common logarithm of the concentration in molar units.

[
  {
    "compound": "COc1ccc(CC(=O)O)cc1-c1ccc(Cl)c2c1CN(C(=O)CCc1cn(C)c3ccccc13)CC2",
    "system_name": "hCRTH2 receptor (Homo sapiens (Human))",
    "reported_value": 7.42
  },
  {
    "compound": "O=C(O)Cn1c2ccccc2c2cc(NS(=O)(=O)c3ccc(F)cc3)ccc21",
    "system_name": "hCRTH2 receptor (Homo sapiens (Human))",
    "reported_value": 7.41
  },
  {
    "compound": "CCOc1cc(C(C)C(=O)O)ccc1-c1ccc(F)c2c1CN(C(=O)OCc1ccccc1)CC2 (racemic)",
    "system_name": "hCRTH2 receptor (Homo sapiens (Human))",
    "reported_value": 7.95
  },
  {
    "compound": "CCCc1ccc(CC(=O)O)cc1-c1ccc(F)c2c1CN(C(=O)OCc1ccccc1)CC2",
    "system_name": "hCRTH2 receptor (Homo sapiens (Human))",
    "reported_value": 8.44
  },
  {
    "compound": "CCOc1ccc(CC(=O)O)cc1-c1ccc(F)c2c1CN(C(=O)NCc1ccccc1Cl)CC2",
    "system_name": "hCRTH2 receptor (Homo sapiens (Human))",
    "reported_value": 8.27
  },
  {
    "compound": "O=C(O)Cn1cc(CCNS(=O)(=O)c2ccc(-c3ccc(F)cc3)cc2)c2ccccc21",
    "system_name": "hCRTH2 receptor (Homo sapiens (Human))",
    "reported_value": 7.43
  },
  {
    "compound": "O=C(O)COc1cccc(-c2ccc(F)c3c2CN(C(=O)OCc2ccccc2)CC3)c1",
    "system_name": "hCRTH2 receptor (Homo sapiens (Human))",
    "reported_value": 6.93
  },
  {
    "compound": "O=C(O)Cc1cc(F)cc(-c2ccc(F)c3c2CN(C(=O)OCc2ccccc2)CC3)c1",
    "system_name": "hCRTH2 receptor (Homo sapiens (Human))",
    "reported_value": 7.83
  }
]

Task item: # get_value(readout='pIC50', item= CCOc1cc(CC(=O)O)ccc1-c1ccc(F)c2c1CN(C(=O)[C@@H]1C[C@H]1c1ccccc1)CC2 )
Reply: 7.98

Task item: Quick one: COc1ccc(CC(=O)O)cc1-c1ccc(F)c2c1CN(C(=O)[C@@H]1C[C@H]1c1ccc(Cl)cc1)CC2 (racemic)
Reply: 8.71

Task item: Try this compound next: CCC(=O)N(Cc1ccc(C(F)(F)F)cc1)c1cccc(-c2nnn[nH]2)c1
Reply: 6.89
